Parameter: cGMP, pmol/10 min/mg. Scope: all listed entries.
- target of assay: Guanylate Cyclase-C (Homo sapiens)
- Construct: host or cells: T84 cells
- assay comment: Stimulation of guanylate cyclase-C induced by the toxin STa in T84 cells (cGMP accumulation)
- Assay type: cell-based
- test parameters: test compound 50 μM, 10 min pre-incubation, then STa 1 μM for 10 min; T84 cells; mean ± SEM
- Description: Protocol for the Stimulation of Guanylate Cyclase-C Induced by the Toxin STa in T84 Cells Cells from the T84 line (ATCC CCL-248) are subculture according to supplier's instructions. Briefly, after washing the culture flask (75 cm^2) using 3 mL of 0.25% Trypsin solution (w/v) and 0.53 mM EDTA solution to remove the traces of serum, the same volume of trypsin is added to each bottle, and cells are observed under a microscope until detachment of the cellular layer (usually 8-10 minutes). […]
readout kind: cGMP, pmol/10 min/mg (pmol/10 min/mg)

>  <molecule>
Cn1c2c(c(=O)n(C)c1=S)C(c1cc(F)cc(C(F)(F)F)c1)C1=C(N2)c2ccccc2C1=O (stereo not shown) [Compound III]

>  <readout kind>
cGMP, pmol/10 min/mg

>  <readout unit>
pmol/10 min/mg

>  <measured>
201.50

$$$$
>  <molecule>
Cn1c2c(c(=O)n(C)c1=O)C(c1cccc3c1OCO3)C1=C(N2)c2ccccc2C1=O (stereo not shown) [Compound VII]

>  <readout kind>
cGMP, pmol/10 min/mg

>  <readout unit>
pmol/10 min/mg

>  <measured>
297.30

$$$$
>  <molecule>
CCn1c2c(c(=O)n(C)c1=O)C(c1cc(F)cc(C(F)(F)F)c1)C1=C(N2)c2ccccc2C1=O (stereo not shown) [Compound IV]

>  <readout kind>
cGMP, pmol/10 min/mg

>  <readout unit>
pmol/10 min/mg

>  <measured>
146.80

$$$$
>  <molecule>
Cn1c2c(c(=O)n(C)c1=O)C(c1cccc3nsnc13)C1=C(N2)c2ccccc2C1=O (stereo not shown) [Compound X]

>  <readout kind>
cGMP, pmol/10 min/mg

>  <readout unit>
pmol/10 min/mg

>  <measured>
668.40

$$$$

====

- target of assay: Guanylate Cyclase-C (Homo sapiens)
- Construct: host or cells: T84 cells
- assay comment: Stimulation of guanylate cyclase-C induced by the toxin STa in T84 cells (cGMP accumulation)
- Assay type: cell-based
- test parameters: T84, test compound 50 μM vs STa (1 μM) group; cGMP accumulation in T84 cells; read-out: % of inhibition (Compound x STa)
The compounds listed here are annotated with their inhibition at 50 µM.

>  <compound>
Cn1c2c(c(=O)n(C)c1=S)C(c1ccc3nsnc3c1)C1=C(N2)c2ccccc2C1=O (stereo not shown) [Compound XII]

>  <inhibition at 50 µM>
~64%

$$$$
>  <compound>
Cn1c2c(c(=O)n(C)c1=S)C(c1cc(C(F)(F)F)cc(C(F)(F)F)c1)C1=C(N2)c2ccccc2C1=O (stereo not shown) [Compound V]

>  <inhibition at 50 µM>
~62%

$$$$
>  <compound>
Cn1c2c(c(=O)n(C)c1=O)C(c1cccc3nsnc13)C1=C(N2)c2ccccc2C1=O (stereo not shown) [Compound X]

>  <inhibition at 50 µM>
~36%

$$$$
>  <compound>
Cn1c2c(c(=O)n(C)c1=S)C(c1cccc3c1OCO3)C1=C(N2)c2ccccc2C1=O (stereo not shown) [Compound VIII]

>  <inhibition at 50 µM>
~66%

$$$$

====

Readings of cGMP, pmol/10 min/mg for the listed compounds
- target of assay: Guanylate Cyclase-C (Homo sapiens, UniProt P25092)
- Construct: host or cells: T84 cells
- Sequence (P25092 24-1073): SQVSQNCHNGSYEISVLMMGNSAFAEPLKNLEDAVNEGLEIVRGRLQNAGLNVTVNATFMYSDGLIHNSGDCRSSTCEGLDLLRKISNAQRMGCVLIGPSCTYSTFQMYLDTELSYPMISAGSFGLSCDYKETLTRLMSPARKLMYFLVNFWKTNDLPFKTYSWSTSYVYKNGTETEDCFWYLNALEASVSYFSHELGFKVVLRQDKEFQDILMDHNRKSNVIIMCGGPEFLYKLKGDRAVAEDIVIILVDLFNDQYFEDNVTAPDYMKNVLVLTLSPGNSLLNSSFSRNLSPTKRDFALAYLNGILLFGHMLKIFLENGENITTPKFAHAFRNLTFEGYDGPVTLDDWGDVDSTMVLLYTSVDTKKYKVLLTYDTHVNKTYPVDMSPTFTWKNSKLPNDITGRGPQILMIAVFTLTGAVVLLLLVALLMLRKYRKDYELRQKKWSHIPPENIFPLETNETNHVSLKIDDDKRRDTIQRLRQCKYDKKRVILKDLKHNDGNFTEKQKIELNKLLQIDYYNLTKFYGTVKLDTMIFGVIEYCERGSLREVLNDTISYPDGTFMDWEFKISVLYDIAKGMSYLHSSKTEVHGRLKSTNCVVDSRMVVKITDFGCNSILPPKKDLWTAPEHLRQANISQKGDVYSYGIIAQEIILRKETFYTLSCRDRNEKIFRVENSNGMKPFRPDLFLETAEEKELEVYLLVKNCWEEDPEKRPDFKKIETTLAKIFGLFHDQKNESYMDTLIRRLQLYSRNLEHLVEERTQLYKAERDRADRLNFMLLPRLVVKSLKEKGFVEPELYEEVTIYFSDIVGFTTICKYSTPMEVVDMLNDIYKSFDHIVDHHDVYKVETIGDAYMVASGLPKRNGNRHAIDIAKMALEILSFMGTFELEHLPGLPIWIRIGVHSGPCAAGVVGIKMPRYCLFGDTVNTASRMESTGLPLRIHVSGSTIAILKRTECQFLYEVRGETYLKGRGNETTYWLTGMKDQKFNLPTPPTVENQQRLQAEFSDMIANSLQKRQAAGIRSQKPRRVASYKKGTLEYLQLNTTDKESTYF
- assay comment: Stimulation of guanylate cyclase-C induced by the toxin STa in T84 cells (cGMP accumulation)
- Format: cell-based
- test parameters: test compound 50 μM, 10 min pre-incubation, then STa 1 μM for 10 min; T84 cells; mean ± SEM

>  <compound>
Cn1c2c(c(=O)n(C)c1=O)C(c1ccc3c(c1)OCO3)C1=C(N2)c2ccccc2C1=O (stereo not shown) [Compound IX]

>  <target of assay>
Guanylate Cyclase-C (Homo sapiens, UniProt P25092)

>  <readout unit>
pmol/10 min/mg

>  <cGMP, pmol/10 min/mg>
703.50

$$$$
>  <compound>
Cn1c2c(c(=O)n(C)c1=O)C(c1ccc3nsnc3c1)C1=C(N2)c2ccccc2C1=O (stereo not shown) [Compound XI]

>  <target of assay>
Guanylate Cyclase-C (Homo sapiens, UniProt P25092)

>  <readout unit>
pmol/10 min/mg

>  <cGMP, pmol/10 min/mg>
171.30

$$$$
>  <compound>
Cn1c2c(c(=O)n(C)c1=O)C(c1csc(C(F)(F)F)c1)C1=C(N2)c2ccccc2C1=O (stereo not shown) [Compound I]

>  <target of assay>
Guanylate Cyclase-C (Homo sapiens, UniProt P25092)

>  <readout unit>
pmol/10 min/mg

>  <cGMP, pmol/10 min/mg>
210.70

$$$$
>  <compound>
Cn1c2c(c(=O)n(C)c1=S)C(c1cccc3c1OCO3)C1=C(N2)c2ccccc2C1=O (stereo not shown) [Compound VIII]

>  <target of assay>
Guanylate Cyclase-C (Homo sapiens, UniProt P25092)

>  <readout unit>
pmol/10 min/mg

>  <cGMP, pmol/10 min/mg>
350.70

$$$$
>  <compound>
Cn1c2c(c(=O)n(C)c1=S)C(c1ccc3nsnc3c1)C1=C(N2)c2ccccc2C1=O (stereo not shown) [Compound XII]

>  <target of assay>
Guanylate Cyclase-C (Homo sapiens, UniProt P25092)

>  <readout unit>
pmol/10 min/mg

>  <cGMP, pmol/10 min/mg>
201.50

$$$$
>  <compound>
CCn1c2c(c(=O)n(C)c1=O)C(c1cc(C(F)(F)F)cc(C(F)(F)F)c1)C1=C(N2)c2ccccc2C1=O (stereo not shown) [Compound VI]

>  <target of assay>
Guanylate Cyclase-C (Homo sapiens, UniProt P25092)

>  <readout unit>
pmol/10 min/mg

>  <cGMP, pmol/10 min/mg>
22.83

$$$$
>  <compound>
Cn1c2c(c(=O)n(C)c1=S)C(c1csc(C(F)(F)F)c1)C1=C(N2)c2ccccc2C1=O (stereo not shown) [Compound II]

>  <target of assay>
Guanylate Cyclase-C (Homo sapiens, UniProt P25092)

>  <readout unit>
pmol/10 min/mg

>  <cGMP, pmol/10 min/mg>
57.50

$$$$

====

- assay comment: Determination of absolute bioavailability in Beagle dogs (oral vs intravenous, plasma LC-MS/MS)
- Assay type: in vivo
- test parameters: dog, male Beagle dogs, oral powder in capsules 3 mg/kg vs intravenous bolus 1, 3 and 10 mg/kg
Reported values of bioavailability for individual entries
readout kind: bioavailability

>  <compound>
Cn1c2c(c(=O)n(C)c1=S)C(c1csc(C(F)(F)F)c1)C1=C(N2)c2ccccc2C1=O (stereo not shown) [Compound II]

>  <measured>
0.16%

$$$$
>  <compound>
Cn1c2c(c(=O)n(C)c1=O)C(c1ccc3nsnc3c1)C1=C(N2)c2ccccc2C1=O (stereo not shown) [Compound XI]

>  <measured>
0.35%

$$$$
>  <compound>
CCn1c2c(c(=O)n(C)c1=O)C(c1cc(C(F)(F)F)cc(C(F)(F)F)c1)C1=C(N2)c2ccccc2C1=O (stereo not shown) [Compound VI]

>  <measured>
0.82%

$$$$
>  <compound>
CCn1c2c(c(=O)n(C)c1=O)C(c1cc(F)cc(C(F)(F)F)c1)C1=C(N2)c2ccccc2C1=O (stereo not shown) [Compound IV]

>  <measured>
0.17%

$$$$

====

// boundary case: melting point equal to 300 °C maps to rule not met; strictly smaller maps to rule met

>  <molecule>
CCn1c2c(c(=O)n(C)c1=O)C(c1cc(C(F)(F)F)cc(C(F)(F)F)c1)C1=C(N2)c2ccccc2C1=O (centres unmarked) [Compound VI]

>  <class>
rule met

$$$$
>  <molecule>
Cn1c2c(c(=O)n(C)c1=S)C(c1cc(C(F)(F)F)cc(C(F)(F)F)c1)C1=C(N2)c2ccccc2C1=O (centres unmarked) [Compound V]

>  <class>
rule not met

$$$$
>  <molecule>
CCn1c2c(c(=O)n(C)c1=O)C(c1cc(F)cc(C(F)(F)F)c1)C1=C(N2)c2ccccc2C1=O (centres unmarked) [Compound IV]

>  <class>
rule met

$$$$
>  <molecule>
Cn1c2c(c(=O)n(C)c1=S)C(c1ccc3nsnc3c1)C1=C(N2)c2ccccc2C1=O (centres unmarked) [Compound XII]

>  <class>
rule not met

$$$$
>  <molecule>
Cn1c2c(c(=O)n(C)c1=S)C(c1csc(C(F)(F)F)c1)C1=C(N2)c2ccccc2C1=O (centres unmarked) [Compound II]

>  <class>
rule met

$$$$
>  <molecule>
Cn1c2c(c(=O)n(C)c1=O)C(c1csc(C(F)(F)F)c1)C1=C(N2)c2ccccc2C1=O (centres unmarked) [Compound I]

>  <class>
rule met

$$$$
>  <molecule>
Cn1c2c(c(=O)n(C)c1=S)C(c1cccc3c1OCO3)C1=C(N2)c2ccccc2C1=O (centres unmarked) [Compound VIII]

>  <class>
rule not met

$$$$
>  <molecule>
Cn1c2c(c(=O)n(C)c1=S)C(c1cc(F)cc(C(F)(F)F)c1)C1=C(N2)c2ccccc2C1=O (centres unmarked) [Compound III]

>  <class>
rule not met

$$$$
